Origin of measurements: ChEMBL document CHEMBL1129242

- Test system: NIH3T3
- Assay info: Minimum inhibitory concentration for the inhibition of transformation in ras- transformed cells(ras/ NIH3T3)
- Type: functional
- Settings: Mus musculus
# strict inequality: MIC < 0.2 µM yields class 1, everything else yields class 0

INSERT INTO results (chemical_structure, target_or_system, class) VALUES
  ('O=C(CCCC/C=C/c1ccccc1NS(=O)(=O)c1ccccc1)NO', 'NIH3T3', 'class 0'),
  ('Cc1ccc(S(=O)(=O)Nc2cccc(C#C/C=C/C(=O)NO)c2)cc1', 'NIH3T3', 'class 1'),
  ('O=C(CCCC/C=C\c1ccccc1NS(=O)(=O)c1ccccc1)NO', 'NIH3T3', 'class 0'),
  ('O=C(/C=C/C#Cc1cccc(NS(=O)(=O)c2ccc3ccccc3c2)c1)NO', 'NIH3T3', 'class 1'),
  ('O=C(/C=C/C=C/c1ccccc1NS(=O)(=O)c1ccccc1)NO', 'NIH3T3', 'class 0'),
  ('O=C(/C=C/C#Cc1cccc(NS(=O)(=O)c2ccc([N+](=O)[O-])cc2)c1)NO', 'NIH3T3', 'class 0'),
  ('COc1ccc(S(=O)(=O)Nc2cccc(C#C/C=C/C(=O)NO)c2)cc1', 'NIH3T3', 'class 1'),
  ('CN(c1ccccc1/C=C/C=C/C(=O)NO)S(=O)(=O)c1ccccc1', 'NIH3T3', 'class 0'),
  ('O=C(/C=C/C#Cc1cccc(NS(=O)(=O)c2ccc(F)cc2)c1)NO', 'NIH3T3', 'class 1'),
  ('O=C(/C=C/C=C/c1ccc(NS(=O)(=O)c2ccccc2)cc1)NO', 'NIH3T3', 'class 0');
